Provide the reported melting point of each item.

Here's what some known entries look like.
| substance smiles | endpoint result |
| --- | --- |
| CS(=O)(=O)Nc1cccc(Nc2nc(N3CCC[C@H]3CO)c3nc[nH]c3n2)c1 | 192 to 197 °C |
| CS(=O)(=O)Nc1cccc(Nc2nc(OC3CCCC3)c3cc[nH]c3n2)c1 | 203 to 205 °C |
| C[C@H](Nc1nc(Nc2cccc(NS(C)(=O)=O)c2)nc2[nH]cnc12)C(C)(C)C | 150 to 153 °C |

`CCC(C)(C)[C@@H](C)Nc1nc(Nc2cccc(NS(C)(=O)=O)c2)nc2[nH]cnc12` has a reported melting point of 143 to 146 °C

###

Provide the reported melting point of each item.

Here's what some known entries look like.
| substance smiles | melting point |
| --- | --- |
| CC[C@H](Nc1nc(Nc2cccc(NS(C)(=O)=O)c2)nc2[nH]cnc12)c1ccccc1 | 138 to 141 °C |
| CS(=O)(=O)Nc1cccc(Nc2nc(NCc3cccc(C#N)c3)c3nc[nH]c3n2)c1 | 128 to 131 °C |
| CC(C)N(CCO)c1nc(Nc2cccc(NS(C)(=O)=O)c2)nc2[nH]ccc12 | 129 to 132 °C |

`C[C@H](Nc1nc(Nc2cccc(NS(C)(=O)=O)c2)nc2[nH]ccc12)C(C)(C)C` has a reported melting point of 128 to 132 °C
